- System: BxPC3
- MEASUREMENT_DESCRIPTION: Chemosensitivity, 96 h continuous exposure, MTT assay
- Type: cell-based, human
- RUN_PARAMETERS: ratio of IC50, BXPC3
MEASURED_PROPERTY: Relative potency (+ anion to no anion), Ratio + anion:no anion

Exercise: # get_value(readout='Relative potency (+ anion to no anion), Ratio + anion:no anion', item= O=P([O-])([O-])[O-].[Cu+2].[Cu+2].[Cu+2].c1ccc(-c2csc(NCCN(CCNc3nc(-c4ccccn4)cs3)CCNc3nc(-c4ccccn4)cs3)n2)nc1.c1ccc(-c2csc(NCCN(CCNc3nc(-c4ccccn4)cs3)CCNc3nc(-c4ccccn4)cs3)n2)nc1 [[L2Cu3(PO4)]3+] )
Key: 5.74

Exercise: What value of Relative potency (+ anion to no anion), Ratio + anion:no anion has been reported for the following compound? O=S(=O)(O)O.[Zn+2].[Zn+2].[Zn+2].c1ccc(-c2csc(NCCN(CCNc3nc(-c4ccccn4)cs3)CCNc3nc(-c4ccccn4)cs3)n2)nc1.c1ccc(-c2csc(NCCN(CCNc3nc(-c4ccccn4)cs3)CCNc3nc(-c4ccccn4)cs3)n2)nc1 [[L2Zn3(SO4)]4+]
Key: 1.87

---

- System: PSN1
- MEASUREMENT_DESCRIPTION: Chemosensitivity, 96 h continuous exposure, MTT assay
- Assay type: cell-based, human
- RUN_PARAMETERS: IC50 MCF10A / IC50 PSN1
MEASURED_PROPERTY: Selectivity index (MCF10A)

Exercise: // Selectivity index (MCF10A) lookup, key: O=P([O-])([O-])Oc1ccccc1.[Cu+2].[Cu+2].[Cu+2].c1ccc(-c2csc(NCCN(CCNc3nc(-c4ccccn4)cs3)CCNc3nc(-c4ccccn4)cs3)n2)nc1.c1ccc(-c2csc(NCCN(CCNc3nc(-c4ccccn4)cs3)CCNc3nc(-c4ccccn4)cs3)n2)nc1 [[L2Cu3(O3POPh)]4+]
Key: 239.43

Exercise: Dear colleague, I am looking for the recorded Selectivity index (MCF10A) of the following compound: CC(=O)[O-].CC(=O)[O-].CC(=O)[O-].CC(=O)[O-].CC(=O)[O-].CC(=O)[O-].[Zn+2].[Zn+2].[Zn+2].c1ccc(-c2csc(NCCN(CCNc3nc(-c4ccccn4)cs3)CCNc3nc(-c4ccccn4)cs3)n2)nc1.c1ccc(-c2csc(NCCN(CCNc3nc(-c4ccccn4)cs3)CCNc3nc(-c4ccccn4)cs3)n2)nc1 [[L2Zn3]6+]
Key: 36.38

---

- System: DLD-1
- MEASUREMENT_DESCRIPTION: Chemosensitivity, 96 h continuous exposure, MTT assay
- Format: cell-based, human
- RUN_PARAMETERS: ratio of IC50, DLD-1
Give Relative potency (+ anion to no anion), Ratio + anion:no anion for every item shown.
Reply briefly: the number, and no unit.

Exercise: Using the record for O=P(O)(O)Oc1ccccc1.[Zn+2].[Zn+2].[Zn+2].c1ccc(-c2csc(NCCN(CCNc3nc(-c4ccccn4)cs3)CCNc3nc(-c4ccccn4)cs3)n2)nc1.c1ccc(-c2csc(NCCN(CCNc3nc(-c4ccccn4)cs3)CCNc3nc(-c4ccccn4)cs3)n2)nc1 [[L2Zn3(O3POPh)]4+] , report its Relative potency (+ anion to no anion), Ratio + anion:no anion.
Key: 1.35

Exercise: Find the recorded Relative potency (+ anion to no anion), Ratio + anion:no anion belonging to O=P([O-])([O-])Oc1ccccc1.[Cu+2].[Cu+2].[Cu+2].c1ccc(-c2csc(NCCN(CCNc3nc(-c4ccccn4)cs3)CCNc3nc(-c4ccccn4)cs3)n2)nc1.c1ccc(-c2csc(NCCN(CCNc3nc(-c4ccccn4)cs3)CCNc3nc(-c4ccccn4)cs3)n2)nc1 [[L2Cu3(O3POPh)]4+] and report it.
Key: 2.97

Exercise: // query Relative potency (+ anion to no anion), Ratio + anion:no anion value for entry [Cu+2].[Cu+2].[Cu+2].c1ccc(-c2csc(NCCN(CCNc3nc(-c4ccccn4)cs3)CCNc3nc(-c4ccccn4)cs3)n2)nc1.c1ccc(-c2csc(NCCN(CCNc3nc(-c4ccccn4)cs3)CCNc3nc(-c4ccccn4)cs3)n2)nc1 [[L2Cu3]6+]
Key: 1

Exercise: Tell me the measured Relative potency (+ anion to no anion), Ratio + anion:no anion of O=P([O-])([O-])[O-].[Cu+2].[Cu+2].[Cu+2].c1ccc(-c2csc(NCCN(CCNc3nc(-c4ccccn4)cs3)CCNc3nc(-c4ccccn4)cs3)n2)nc1.c1ccc(-c2csc(NCCN(CCNc3nc(-c4ccccn4)cs3)CCNc3nc(-c4ccccn4)cs3)n2)nc1 [[L2Cu3(PO4)]3+] , please.
Key: 4.83

Exercise: Field request: Relative potency (+ anion to no anion), Ratio + anion:no anion | item: O=S(=O)(O)O.[Zn+2].[Zn+2].[Zn+2].c1ccc(-c2csc(NCCN(CCNc3nc(-c4ccccn4)cs3)CCNc3nc(-c4ccccn4)cs3)n2)nc1.c1ccc(-c2csc(NCCN(CCNc3nc(-c4ccccn4)cs3)CCNc3nc(-c4ccccn4)cs3)n2)nc1 [[L2Zn3(SO4)]4+]
Key: 1.99

Exercise: Please give the measured Relative potency (+ anion to no anion), Ratio + anion:no anion for this compound: CC(=O)[O-].CC(=O)[O-].CC(=O)[O-].CC(=O)[O-].CC(=O)[O-].CC(=O)[O-].[Zn+2].[Zn+2].[Zn+2].c1ccc(-c2csc(NCCN(CCNc3nc(-c4ccccn4)cs3)CCNc3nc(-c4ccccn4)cs3)n2)nc1.c1ccc(-c2csc(NCCN(CCNc3nc(-c4ccccn4)cs3)CCNc3nc(-c4ccccn4)cs3)n2)nc1 [[L2Zn3]6+]
Key: 1

Exercise: What measured Relative potency (+ anion to no anion), Ratio + anion:no anion goes with CC(=O)[O-].CC(=O)[O-].CC(=O)[O-].O=P([O-])([O-])[O-].[Zn+2].[Zn+2].[Zn+2].c1ccc(-c2csc(NCCN(CCNc3nc(-c4ccccn4)cs3)CCNc3nc(-c4ccccn4)cs3)n2)nc1.c1ccc(-c2csc(NCCN(CCNc3nc(-c4ccccn4)cs3)CCNc3nc(-c4ccccn4)cs3)n2)nc1 [[L2Zn3(PO4)]3+] ?
Key: 1.12

Exercise: Bench note: what Relative potency (+ anion to no anion), Ratio + anion:no anion did O=S(=O)([O-])[O-].[Cu+2].[Cu+2].[Cu+2].c1ccc(-c2csc(NCCN(CCNc3nc(-c4ccccn4)cs3)CCNc3nc(-c4ccccn4)cs3)n2)nc1.c1ccc(-c2csc(NCCN(CCNc3nc(-c4ccccn4)cs3)CCNc3nc(-c4ccccn4)cs3)n2)nc1 [[L2Cu3(SO4)]4+] show?
Key: 4.92
